# Protocol: Plasma toxicokinetics in dogs, fourteen day repeat dose
# Assay type: in vivo, dog
# Conditions: female, dog, plasma, po, 1 mg/kg, female dogs, Gr 3, 1.0 mg/kg, D14
Measured Attribute: Tmax (min)

- Sample Smiles: "CC[C@H]1CC2C[C@H]3c4[nH]c5ccc(O)cc5c4CCN(C2)C13"
  Value Observed: 30

* * *

# Protocol: Plasma toxicokinetics in dogs, fourteen day repeat dose
# Type: in vivo, dog
# Conditions: male, dog, plasma, po, 0.5 mg/kg, male dogs, Gr 2, 0.5 mg/kg, D1; read-out: Cmax
Measured Attribute: Cmax

- Sample Smiles: "CC[C@H]1CC2C[C@H]3c4[nH]c5ccc(O)cc5c4CCN(C2)C13"
  Measured Attribute: "Cmax"
  Value Observed: "28.8 ng/mL"

* * *

# Protocol: Plasma toxicokinetics in dogs, fourteen day repeat dose
# Assay type: in vivo, dog
# Conditions: female, dog, plasma, po, 5 mg/kg, female dogs, Gr 4, 5.0 mg/kg, D1
Measured Attribute: AUC(0-inf) (ng·h/mL)

- Sample Smiles: "CC[C@H]1CC2C[C@H]3c4[nH]c5ccc(O)cc5c4CCN(C2)C13"
  Endpoint Unit: "ng·h/mL"
  Value Observed: 3430

* * *

# Protocol: Plasma toxicokinetics in dogs, fourteen day repeat dose
# Assay type: in vivo, dog
# Conditions: male, dog, plasma, po, 1 mg/kg, male dogs, Gr 3, 1.0 mg/kg, D14

- Compound: "CC[C@H]1CC2C[C@H]3c4[nH]c5ccc(O)cc5c4CCN(C2)C13 [noribogaine]"
  Tmax [min]: 48

* * *

# Protocol: Plasma toxicokinetics in dogs, fourteen day repeat dose
# Assay type: in vivo, dog
# Conditions: male, dog, plasma, po, 0.5 mg/kg, male dogs, Gr 2, 0.5 mg/kg, D1
# Experimental: Noribogaine HCl was administered to groups of 4 male and 4 female dogs by single oral gavage daily for 14 days at doses of 0, 0.5, 1.0 and 5.0 mg/kg/day. An additional group of 4 male and 4 female dogs received either the vehicle control or 5.0 mg/kg/day for 14 days and were held for an additional 28 days after cessation of dosing to assess recovery from any potential drug-induced changes. […]

- Sample Smiles: "CC[C@H]1CC2C[C@H]3c4[nH]c5ccc(O)cc5c4CCN(C2)C13"
  Tmax, min: 42

* * *

# Protocol: Plasma toxicokinetics in dogs, fourteen day repeat dose
# Type: in vivo, dog
# Conditions: female, dog, plasma, po, 0.5 mg/kg, female dogs, Gr 2, 0.5 mg/kg, D1; read-out: AUC0-24 h

- Sample Smiles: "CC[C@H]1CC2C[C@H]3c4[nH]c5ccc(O)cc5c4CCN(C2)C13"
  AUC(0-t) (ng·h/mL): 40.4

* * *

# Protocol: Human pharmacokinetic study, single oral tablet, fasting healthy volunteers (serum levels)
# Format: in vivo
# Conditions: human, serum, oral; single dose of 30 mg, fasting
Measured Attribute: Cmax

- Sample Smiles: "CC[C@H]1CC2C[C@H]3c4[nH]c5ccc(O)cc5c4CCN(C2)C13"
  Measured Attribute: "Cmax"
  Value Observed: "55.9 ng/mL"

* * *

# Protocol: Plasma toxicokinetics in dogs, fourteen day repeat dose
# Type: in vivo, dog
# Conditions: female, dog, plasma, po, 5 mg/kg, female dogs, Gr 4, 5.0 mg/kg, D14

- Sample Smiles: "CC[C@H]1CC2C[C@H]3c4[nH]c5ccc(O)cc5c4CCN(C2)C13"
  half-life: "5.7 h"

* * *

# Protocol: Plasma toxicokinetics in dogs, fourteen day repeat dose
# Assay type: in vivo, dog
# Conditions: male, dog, plasma, po, 5 mg/kg, male dogs, Gr 4, 5.0 mg/kg, D1
# Experimental: Noribogaine HCl was administered to groups of 4 male and 4 female dogs by single oral gavage daily for 14 days at doses of 0, 0.5, 1.0 and 5.0 mg/kg/day. An additional group of 4 male and 4 female dogs received either the vehicle control or 5.0 mg/kg/day for 14 days and were held for an additional 28 days after cessation of dosing to assess recovery from any potential drug-induced changes. […]

- Sample Smiles: "CC[C@H]1CC2C[C@H]3c4[nH]c5ccc(O)cc5c4CCN(C2)C13"
  AUC(0-inf): "3.63 µg·h/mL"

* * *

# Protocol: Plasma toxicokinetics in dogs, fourteen day repeat dose
# Type: in vivo, dog
# Conditions: male, dog, plasma, po, 1 mg/kg, male dogs, Gr 3, 1.0 mg/kg, D1; read-out: Cmax
Measured Attribute: Cmax (ng/mL)

- Compound: "CC[C@H]1CC2C[C@H]3c4[nH]c5ccc(O)cc5c4CCN(C2)C13 [noribogaine]"
  Endpoint Unit: "ng/mL"
  Value Observed: 58.6

* * *

# Protocol: Plasma toxicokinetics in dogs, fourteen day repeat dose
# Type: in vivo, dog
# Conditions: female, dog, plasma, po, 1 mg/kg, female dogs, Gr 3, 1.0 mg/kg, D14

- Sample Smiles: "CC[C@H]1CC2C[C@H]3c4[nH]c5ccc(O)cc5c4CCN(C2)C13"
  Endpoint Unit: "h"
  half-life: 1.6

* * *

# Protocol: Plasma toxicokinetics in dogs, fourteen day repeat dose
# Format: in vivo, dog
# Conditions: male, dog, plasma, po, 5 mg/kg, male dogs, Gr 4, 5.0 mg/kg, D1
# Experimental: Noribogaine HCl was administered to groups of 4 male and 4 female dogs by single oral gavage daily for 14 days at doses of 0, 0.5, 1.0 and 5.0 mg/kg/day. An additional group of 4 male and 4 female dogs received either the vehicle control or 5.0 mg/kg/day for 14 days and were held for an additional 28 days after cessation of dosing to assess recovery from any potential drug-induced changes. […]

- Sample Smiles: "CC[C@H]1CC2C[C@H]3c4[nH]c5ccc(O)cc5c4CCN(C2)C13"
  half-life (h): 4.7

* * *

# Protocol: Plasma toxicokinetics in dogs, fourteen day repeat dose
# Type: in vivo, dog
# Conditions: female, dog, plasma, po, 1 mg/kg, female dogs, Gr 3, 1.0 mg/kg, D1

- Sample Smiles: "CC[C@H]1CC2C[C@H]3c4[nH]c5ccc(O)cc5c4CCN(C2)C13"
  Endpoint Unit: "ng·h/mL"
  AUC(0-inf): 165

* * *

# Protocol: Plasma toxicokinetics in dogs, fourteen day repeat dose
# Format: in vivo, dog
# Conditions: female, dog, plasma, po, 1 mg/kg, female dogs, Gr 3, 1.0 mg/kg, D14; read-out: AUC0-24 h

- Sample Smiles: "CC[C@H]1CC2C[C@H]3c4[nH]c5ccc(O)cc5c4CCN(C2)C13"
  AUC(0-t) (ng·h/mL): 204

* * *

# Protocol: Plasma toxicokinetics in dogs, fourteen day repeat dose
# Format: in vivo, dog
# Conditions: female, dog, plasma, po, 0.5 mg/kg, female dogs, Gr 2, 0.5 mg/kg, D14; read-out: AUC0-last

- Sample Smiles: "CC[C@H]1CC2C[C@H]3c4[nH]c5ccc(O)cc5c4CCN(C2)C13"
  AUC(0-t), ng·h/mL: 35.4

* * *

# Protocol: Plasma toxicokinetics in dogs, fourteen day repeat dose
# Format: in vivo, dog
# Conditions: female, dog, plasma, po, 0.5 mg/kg, female dogs, Gr 2, 0.5 mg/kg, D1; read-out: AUC0-last
Measured Attribute: AUC(0-t) (ng·h/mL)

- Compound: "CC[C@H]1CC2C[C@H]3c4[nH]c5ccc(O)cc5c4CCN(C2)C13 [noribogaine]"
  Endpoint Unit: "ng·h/mL"
  Value Observed: 31.5

* * *

# Protocol: Plasma toxicokinetics in dogs, fourteen day repeat dose
# Assay type: in vivo, dog
# Conditions: male, dog, plasma, po, 0.5 mg/kg, male dogs, Gr 2, 0.5 mg/kg, D1; read-out: AUC0-last

- Sample Smiles: "CC[C@H]1CC2C[C@H]3c4[nH]c5ccc(O)cc5c4CCN(C2)C13"
  AUC(0-t): "46.6 ng·h/mL"

* * *

# Protocol: Plasma toxicokinetics in dogs, fourteen day repeat dose
# Assay type: in vivo, dog
# Conditions: male, dog, plasma, po, 5 mg/kg, male dogs, Gr 4, 5.0 mg/kg, D14; read-out: AUC0-24 h

- Compound: "CC[C@H]1CC2C[C@H]3c4[nH]c5ccc(O)cc5c4CCN(C2)C13 [noribogaine]"
  AUC(0-t): "6400 ng·h/mL"

* * *

# Protocol: Plasma toxicokinetics in dogs, fourteen day repeat dose
# Type: in vivo, dog
# Conditions: female, dog, plasma, po, 5 mg/kg, female dogs, Gr 4, 5.0 mg/kg, D14; read-out: AUC0-24 h
Measured Attribute: AUC(0-t) (ng·h/mL)

- Sample Smiles: "CC[C@H]1CC2C[C@H]3c4[nH]c5ccc(O)cc5c4CCN(C2)C13"
  Value Observed: 5950

* * *

# Protocol: Single dose (acute oral) toxicity/TK study in dogs
# Type: in vivo, dog
# Conditions: dog, in vivo; single oral dose

- Compound: "CC[C@H]1CC2C[C@H]3c4[nH]c5ccc(O)cc5c4CCN(C2)C13 [noribogaine]"
  NOAEL / mg/kg: 5

* * *

# Protocol: Plasma toxicokinetics in dogs, fourteen day repeat dose
# Format: in vivo, dog
# Conditions: male, dog, plasma, po, 0.5 mg/kg, male dogs, Gr 2, 0.5 mg/kg, D14
# Experimental: Noribogaine HCl was administered to groups of 4 male and 4 female dogs by single oral gavage daily for 14 days at doses of 0, 0.5, 1.0 and 5.0 mg/kg/day. An additional group of 4 male and 4 female dogs received either the vehicle control or 5.0 mg/kg/day for 14 days and were held for an additional 28 days after cessation of dosing to assess recovery from any potential drug-induced changes. […]
Measured Attribute: Tmax (min)

- Molecule: "CC[C@H]1CC2C[C@H]3c4[nH]c5ccc(O)cc5c4CCN(C2)C13 [noribogaine]"
  Measured Attribute: "Tmax"
  Endpoint Unit: "min"
  Value Observed: 42

Values compiled from patent US20150258107A1.
